system: UACC-62 melanoma; experiment: NCI tumour cell line growth inhibition, 48 h
Here, each record is paired with measured TGI data.
Value Type: TGI

- CCC1=NC(N/N=C/c2ccco2)=N/C1=C\c1ccco1: > 100 µM
- CC(=O)NC(CCCCN(Cc1ccccc1)C(=O)N(C)N=O)C(=O)NCc1ccccc1 (stereo not drawn): > 100 µM
- CC(C)(C)c1cc(C#N)c2c(c1)C(=O)OC2(c1ccccc1)c1ccccc1C#N (stereo not drawn): > 100 µM
- COc1ccccc1CC1(O)OC(=O)c2ccccc21 (stereo not drawn): > 100 µM
- N#CC(C#N)[C@@H]1CCC=C(Sc2ccccc2)[C@H]1Sc1ccccc1: 13.9 µM
- N#CC(C(=S)Nc1ccccc1)=C1Nc2ccccc2N1: > 10 µM
- O=CCC(O)C(O)C(O)CO (stereo not drawn): > 100 µM
- CC(C)(C)CC(C)(C)c1cc2c(O)c(c1)Cc1cc(C(C)(C)CC(C)(C)C)cc(c1O)Cc1cc(C(C)(C)CC(C)(C)C)cc(c1O)Cc1cc(C(C)(C)CC(C)(C)C)cc(c1O)Cc1cc(C(C)(C)CC(C)(C)C)cc(c1O)Cc1cc(C(C)(C)CC(C)(C)C)cc(c1O)Cc1cc(C(C)(C)CC(C)(C)C)cc(c1O)Cc1cc(C(C)(C)CC(C)(C)C)cc(c1O)C2: > 100 µM

----------
Here, each record is paired with measured TGI data.
tested on: SF-539 CNS; experiment: NCI tumour cell line growth inhibition, 48 h
Value Type: TGI

• Cc1ccc(S(=O)(=O)Nc2cc(=O)[nH]c3c2CCC3)cc1 = > 100 µM
• NC(=O)/C=C/c1c[nH]c2nccnc12 = 6.15 µM
• CCN1C(=O)N[C@H]2[C@@H]3NC(=O)c4ccc(Cl)n4[C@@H]3C[C@]21O = 2.57 µM
• CCOC(=O)c1nc2ccc(C(F)(F)F)cc2nc1NCc1ccc(F)cc1 = > 100 µM
• CC(=S)NC=C(C(N)=O)C(N)=O = > 100 µM
• COc1ccccc1C(=O)Nc1ccc(Cl)c(C(=O)OC(C)C)c1 = > 100 µM
• CCOC(=O)/C(=C/c1ccccc1)N(CC)CC = > 100 µM
• COC(=O)[C@H]1C2CC[C@@H]3C45C[C@@H](c6ccoc6)O[C@@H]4O[C@@H](O2)C31CCC5C (stereo not given in full) = > 100 µM
• Nc1nc(N)c2cc(S(=O)(=O)c3ccccc3)ccc2n1 = > 100 µM
• C=C(C)[C@@H]1CC[C@]2(COC(=O)c3ccccc3C(=O)O)CC[C@]3(C)[C@H](CC[C@@H]4[C@@]5(C)CC[C@H](OC(=O)c6ccccc6C(=O)O)C(C)(C)[C@@H]5CC[C@]43C)[C@@H]12 = > 100 µM

----------
test system: KM12 colon; assay: NCI tumour cell line growth inhibition, 48 h
Peptide text beside a SMILES is read from it. * marks the point of attachment. Cbz = O=C(OCc1ccccc1)*
Value Type: TGI

* COc1ccc2c(ccc3oc([N+](=O)[O-])cc32)c1 | 1.21 µM
* Nc1ncc(-c2ccc3ncnc(N4CCc5cc(F)c(Cl)cc54)c3c2)cc1C(F)(F)F | > 100 µM
* O=C1c2ccccc2-c2c1c1ccc([N+](=O)[O-])cc1c(=O)n2CCN1CCOCC1 | > 100 µM
* O=C1/C(=C\c2cccc(Oc3ccccc3)c2)SC(c2ccccc2)N1Cc1ccccc1 (centres undefined) | 83.8 µM
* C#C[C@]1(O)[C@@H](CO)O[C@@H](n2ccc(=O)[nH]c2=O)[C@@H]1O | > 100 µM
* COc1ncc(-c2ccc3ncnc(Nc4cccc(Cl)c4)c3c2)cc1NS(C)(=O)=O | 16.1 µM
* CCOC(=O)CCC(NC(=O)CNC(=O)CNC(=O)C(CCC(=O)OCC)NC(=O)C(CCC(=O)OCC)NC(=O)C(CCC(=O)OCC)NC(=O)OCc1ccccc1)C(=O)NC(CCC(=O)OCC)C(=O)NC(CCC(=O)OCC)C(=O)OCC (centres undefined) (Cbz-E(OEt)E(OEt)E(OEt)GGE(OEt)E(OEt)E(OEt)-OEt; configuration not given here) | > 75 µM
* CS(=O)(=O)Nc1cccc(-c2ccc3ncnc(Nc4cncc(Cl)c4)c3c2)c1 | > 100 µM
* COc1cc(S(=O)(=O)Nc2ccc(-c3csc(/N=C\c4cccc(Oc5ccccc5)c4)n3)cc2)ccc1Cl | > 100 µM

----------
test system: SK-OV-3 ovarian; assay: NCI tumour cell line growth inhibition, 48 h
Here, each record is paired with measured TGI data.
Value Type: TGI

* C=C(C)C1Cc2cc(C(C)=O)ccc2O1 (centres undefined) | > 100 µM
* COc1cc(-c2cn(-c3ccc(F)cc3)c(=O)[nH]2)cc(OC)c1OC | > 100 µM
* Cc1ccc([N+](=O)[O-])cc1NC(=O)/C(CC(=O)c1sc(C(N)=S)nc1C)=N\N | > 100 µM
* O=C1c2ccccc2C(=O)c2c1sc1nc3ccccc3n21 | 19.1 µM
* CCOC(=O)/C(=C/c1ccccc1)N(CC)CC | > 100 µM
* CCOC(=O)CCCOc1cc(-c2ccccc2F)nc2cc3c(cc12)OCO3 | > 100 µM
* Oc1c(O)c(Cc2ccccc2)c(Cc2ccccc2)c(Cc2ccccc2)c1Cc1ccccc1 | > 10 µM
* CN(CCc1ccccn1)c1ccc2c(c1)Cc1ccccc1-2 | 68.6 µM
* COc1cc(NC(=O)c2cc3ccccc3cc2O)c(OC)cc1Cl | 3.94 µM

----------
system: OVCAR-8 ovarian; experiment: NCI tumour cell line growth inhibition, 48 h
Here, each record is paired with measured TGI data.
Value Type: TGI

- COc1cc(/C=C/C(=O)N[C@@H]2C(=O)N3[C@@H]2SC(C)(C)[C@@H]3C(=O)O)ccc1O: > 100 µM
- COc1cc(S(=O)(=O)Nc2ccc(-c3csc(/N=C\c4cccc(Oc5ccccc5)c4)n3)cc2)ccc1Cl: 61.9 µM
- CS(=O)(=O)Nc1cccc(-c2ccc3ncnc(Nc4cncc(Cl)c4)c3c2)c1: > 100 µM
- C[C@]12O[C@@]3(C)O[C@@]3(C)[C@]3(C)O[C@]3(C)[C@@]1(C)O2: > 100 µM
- COc1ccc(/C=N/C2=NNC(C)(c3ccccc3O)N2C(Cc2c[nH]c3ccccc23)C(=O)O)cc1 (stereo unspecified): 16 µM
- C#CCn1c2c(c3ccccc3c1=O)C(=O)c1ccccc1-2: 82.3 µM
- CCOc1ccc2c(c1)[n+]([O-])c(-c1ccc([N+](=O)[O-])cc1)c(N)[n+]2[O-]: > 100 µM
- Cc1cc(=O)[nH]c(Sc2ccc([N+](=O)[O-])cc2[N+](=O)[O-])n1: 30 µM
- CC1(C)CC(C(=O)OCCCCCCCCCCC[P+](c2ccccc2)(c2ccccc2)c2ccccc2)C(C)(C)N1O (stereo unspecified): 1.72 µM
- Clc1ccc(C2=Cc3nc2c(-c2ccccc2)c2ccc([nH]2)c(-c2ccccc2)c2nc(c(-c4ccccc4)c4ccc([nH]4)c3-c3ccccc3)C=C2)cc1: > 62.5 µM
- NC(N)=N/N=C/c1c(-c2cccs2)nc2n1CCS2: > 100 µM
- CN(C)C(=S)/N=C(\N)N(C)C: > 100 µM
- C#CCOCn1cnc2c(N)ncnc21: > 100 µM
- CC(=O)OCc1ncccc1C(OC(C)=O)OC(C)=O: > 100 µM
- CN(CCCN1CCCC1)CCCN(C)C(=O)Cc1ccc(Cl)c(Cl)c1: > 100 µM
- CC(C)(C)COS(=O)OCC(C)(C)C: > 100 µM
- Cc1cccc(/C=N/N=C(\N)NO)n1: > 100 µM
- CC(C)C1COC(C(C)(C)C2=N[C@@H](C(C)C)CO2)=N1 (stereo partly specified): > 100 µM
- CN1CCC(n2cnc(-c3ccc(F)cc3)c2-c2ccnc(Nc3ccccc3)n2)CC1: > 25 µM
- COc1ccccc1C(=O)Nc1ccc(Cl)c(C(=O)OC(C)C)c1: > 100 µM
- N#CC1=C(N)Oc2c(ccc3cccnc23)C1c1ccccc1 (stereo unspecified): > 100 µM

----------
system: NCI/ADR-RES ovarian; test: NCI tumour cell line growth inhibition, 48 h; in the data active = GI50 below about 0.43 µM; inactive = the rest
Possible outcomes: active, inactive

- Nc1n[nH]c2cc(F)c([C@@H]3Nc4c(F)cc5[nH]ncc5c4[C@H]4C5CCC(C5)[C@@H]34)cc12 (stereo not given in full): active
- N#Cc1cc2c(=S)[nH]c(=S)[nH]c2nc1SCc1ccccc1: inactive
- COc1ccccc1CNC(=O)/C=C/c1ccc(O)c(O)c1: inactive
- CCN1C(=O)N[C@H]2[C@@H]3NC(=O)c4ccc(Cl)n4[C@@H]3C[C@]21O: inactive
- Nc1ncc(-c2ccc3ncnc(N4CCc5cc(F)c(Cl)cc54)c3c2)cc1C(F)(F)F: inactive

----------
test system: IGROV1 ovarian; assay: NCI tumour cell line growth inhibition, 48 h
Value Type: TGI

- NCCNc1nc2ccc(F)cc2c2c(=O)c3cc(F)ccc3sc12: 2.37 µM
- C#C[C@@H](OC(=O)c1ccc([N+](=O)[O-])cc1)[C@@H]1C[C@H]2O[C@@H]([C@H](C/C=C/CC)OC(=O)c3ccc([N+](=O)[O-])cc3)C[C@H]2O1: > 100 µM
- NC(=O)/C=C/c1c[nH]c2nccnc12: > 28.8 µM
- CCCCCCCCCCCc1cc(=O)c2c(O)cccc2o1: > 100 µM
- CN(CCCNC(=O)c1nn(-c2ccccc2)c2c1Cc1ccccc1-2)CCCNC(=O)c1nn(-c2ccccc2)c2c1Cc1ccccc1-2: 3.07 µM
- CCCCc1n(Cc2ccc3ccccc3n2)cc[n+]1Cc1ccc2ccccc2c1: 2.38 µM
- Oc1ccc(Cl)cc1C1=Nn2c(COc3ccc4c(c3)CCCC4)nnc2SC1: 26.3 µM
- Nc1nc(N)c2cc(S(=O)(=O)c3ccccc3)ccc2n1: > 100 µM
- COc1cc(NC(=O)c2cc3ccccc3cc2O)c(OC)cc1Cl: 15.4 µM
- CC(=O)NC(CCCCN(Cc1ccccc1)C(=O)N(C)N=O)C(=O)NCc1ccccc1 (stereo unspecified): > 100 µM
- Cn1c(=O)c2[nH]c(CCS)nc2n(C)c1=O: > 100 µM
- CNc1cc(Cl)ccc1C(=O)N1CCC[C@H]1CO: > 100 µM
- N#Cc1cc2c(=S)[nH]c(=S)[nH]c2nc1SCc1ccccc1: > 100 µM
- CNc1ccc(Cl)cc1C(=O)N1CCC[C@H]1CO: > 100 µM
- N#CCc1ccccc1/C(C#N)=C1/OC(=N)C(c2ccccc2CC#N)C1=O (stereo unspecified): > 100 µM
- O=C1NC(=O)C23C(=O)NC(=O)C12C1C=CC3CC1 (stereo unspecified): > 10 µM
- COC(=O)[C@]12CC[C@@H](C)[C@H](C)[C@@H]1C1=CC[C@@H]3[C@@]4(C)C(C=O)=C[C@@](C)(COC(=O)c5ccco5)C4=CC[C@@]3(C)[C@]1(C)CC2: 24.3 µM
- Cc1c2ccccc2cc2cccc[n+]12: > 100 µM
- CC(NNC(=S)N1CCN(c2ccccn2)CC1)c1cccc[n+]1[O-] (stereo unspecified): > 100 µM
- COc1cc(CO)cc2c1[nH]c1ccccc12: > 25 µM
- O=C(O)c1ccc2[nH]c(=O)oc2c1: > 100 µM
